Reference for the values: paper PMC9482650

target: T1, NHERF3_1, Q5T2W1
T1 sequence (Q5T2W1 4-100, limits assumed, looked up): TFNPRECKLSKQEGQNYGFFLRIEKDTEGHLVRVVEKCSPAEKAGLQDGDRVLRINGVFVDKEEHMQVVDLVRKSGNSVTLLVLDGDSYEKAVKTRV
assay_comment: holdup assay
Set-up: key: below the threshold = too weak to quantify, mostly under pKd 3.1 to 4
assay_conditions: plain residues with an end cap or a label only (N-terminal biotin on a linker: ahx)
The following binders are listed with their measured pKd values.

{"binder": "ADENEQVSAV [RAPGEF6, Q8TEU7]", "pKd": 3.53}
{"binder": "KEYDDELTFF [USH1C, Q9Y6N9]", "pKd": 4.27}
{"binder": "VNENQKEYFF [CNTNAP4, Q9C0A0]", "pKd": 4.91}
{"binder": "KDECVIATEV [DLL1, O00548]", "pKd": 3.88}
{"binder": "PKMKLNETSF [SHKBP1, Q8TBC3]", "pKd": 4.55}
